Exercise: for every item that follows, state its recorded IC50.
Target: full length active recombinant SYK enzyme (Homo sapiens)
Construct: full length active recombinant SYK enzyme (Millipore, Calif.)
Assay: Inhibition of Syk tyrosine phosphorylation activity (LANCE TR-FRET kinase assay)
Procedure: Inhibition of Syk Tyrosine Phosphorylation Activity Potency of candidate molecules for inhibiting Syk tyrosine phosphorylation activity is assessed by measuring the ability of a test compound to inhibit Syk-mediated tyrosine phosphorylation of a Syk-specific substrate. SYK tyrosine phosphorylation activity is measured using the LANCE™ Technology developed by Perkin Elmer Life and Analytical Sciences (Boston, Mass.). […]

Cc1cncc(Nc2nc(NC[C@H](C)N)c(F)cc2C(N)=O)c1 [Example 260] : 10 to 100 nM
CC[C@H](CN)Nc1nc(Nc2cncc(C)c2)c(C(N)=O)cc1F [Example 95] : 10 to 100 nM
NC(=O)c1cc(F)c(N[C@@H]2CCOC[C@@H]2N)nc1Nc1cnc2ccccc2c1 [Example 275] : 10 to 100 nM
NC(=O)c1cc(F)c(N[C@@H]2CCCC[C@@H]2N)nc1Nc1cccnc1 [Example 174] : 1 to 10 nM
Cc1cccc(Nc2nc(N[C@@H]3CCCC[C@@H]3N)ccc2C(N)=O)c1 [Example 102] : 1 to 10 nM
Cn1ccc2cc(Nc3nc(N[C@@H]4CCCC[C@@H]4N)c(F)cc3C(N)=O)ccc21 [Example 63] : 1 to 10 nM
C[C@H](CN)Nc1nc(Nc2cccc3nn(C)cc23)c(C(N)=O)cc1C#N [Example 112] : 10 to 100 nM
COc1cncc(Nc2nc(N[C@@H]3CCCC[C@@H]3N)c(F)cc2C(N)=O)c1 [Example 88] : 1 to 10 nM

Here's the next entry for you.
*Q* Form: Entry = CC(C)C[C@@H](Nc1nc(Nc2cccc(Cl)c2)c(C(N)=O)cc1F)C(N)=O [Example 265] | System = full length active recombinant SYK enzyme (Homo sapiens) | IC50 = ____
*A* 10 to 100 nM

###

For each of the compounds below, state its IC50.
Target: full length active recombinant SYK enzyme (Homo sapiens, UniProt P43405)
Construct: full length active recombinant SYK enzyme (Millipore, Calif.)
Assay: Inhibition of Syk tyrosine phosphorylation activity (LANCE TR-FRET kinase assay)

NC(=O)c1cc(F)c(N[C@@H]2CCCC[C@@H]2N)nc1Nc1ccc2cccnc2c1 : 1 to 10 nM
CC(C)[C@@H](Nc1nc(Nc2cccc(-n3nccn3)c2)c(C(N)=O)cc1C#N)C(N)=O : > 1000 nM
NC(=O)c1cc(F)c(N[C@@H]2CCCC[C@@H]2N)nc1Nc1ccc2cnccc2c1 : < 1 nM
NC(=O)c1cc(F)c(N[C@@H]2CCCC[C@@H]2N)nc1Nc1csc2ncccc12 : 1 to 10 nM
NC(=O)c1ccc(N[C@@H]2CCCC[C@@H]2N)nc1Nc1cncc(-c2nccs2)c1 : 1 to 10 nM
C[C@H](N)CNc1nc(Nc2cccc(-n3nccn3)c2)c(C(N)=O)cc1C#N : 10 to 100 nM
Cc1ccc(Nc2nc(N[C@@H]3CCCC(F)(F)[C@@H]3N)c(F)cc2C(N)=O)cc1 : 100 to 1000 nM
Cc1cc(Nc2cc(N[C@H](Cc3cccnc3)C(N)=O)c(F)cc2C(N)=O)sn1 : 100 to 1000 nM

Please give IC50 for each item listed below.
1. NC(=O)c1cc(F)c(N[C@@H]2CCCC[C@@H]2N)nc1Nc1cccc(-n2nccn2)c1
2. NC(=O)c1cc(F)c(N[C@@H]2CCCC[C@@H]2N)nc1Nc1cncc(-n2nccn2)c1
3. CC[C@@H](Nc1nc(Nc2cccc3c2ccn3C)c(C(N)=O)cc1F)C(N)=O
4. Cc1cc(Nc2cc(N[C@H](Cc3ccccc3)C(N)=O)c(F)cc2C(N)=O)sn1
5. NC(=O)c1cc(F)c(N[C@@H]2CCCC[C@@H]2N)nc1Nc1ccc(-n2ccnc2)cc1
6. CC(C)C[C@@H](Nc1nc(Nc2ccc3cccnc3c2)c(C(N)=O)cc1F)C(N)=O
7. CC[C@@H](Nc1nc(Nc2cncc(F)c2)c(C(N)=O)cc1F)C1(N)CC1
8. CC(C)C[C@@H](Nc1nc(Nc2ccc3c(ccn3C)c2)c(C(N)=O)cc1F)C(N)=O

*A*
1 to 10 nM
1 to 10 nM
10 to 100 nM
1 to 10 nM
1 to 10 nM
10 to 100 nM
10 to 100 nM
10 to 100 nM

###

For each entry below, report its pIC50 value.
Molecular target: full length active recombinant SYK enzyme (Homo sapiens)
Construct: full length active recombinant SYK enzyme (Millipore, Calif.)
Assay: Inhibition of Syk tyrosine phosphorylation activity (LANCE TR-FRET kinase assay)
pIC50: −log10 of the molar value.

NC(=O)c1cc(F)c(N[C@@H]2CCCC[C@@H]2N)nc1Nc1ccc(-c2ccncn2)cc1 : 8.00 to 9.00
NC(=O)c1cc(F)c(NC[C@@H](N)CC(F)F)nc1Nc1cncc(F)c1 : 6.00 to 7.00
NC(=O)c1ccc(N[C@@H]2CCCC[C@@H]2N)nc1Nc1cccc(-c2ncccn2)c1 : 7.00 to 8.00
NC(=O)c1cc(F)c(N[C@H]2[C@@H](N)CCCC2(F)F)nc1Nc1ccc2ncsc2c1 : 8.00 to 9.00
CC(C)C[C@H](CN)Nc1nc(Nc2cccc(-n3nccn3)c2)c(C(N)=O)cc1C#N : 8.00 to 9.00
Cc1cc(Nc2nc(N[C@H](CC3CC3)C(N)=O)c(F)cc2C(N)=O)sn1 : 7.00 to 8.00

Quick one: give me pIC50 for each item below, same order please.
1. NC(=O)c1cc(F)c(N[C@@H]2CCCC[C@@H]2N)nc1Nc1ccn2ccnc2c1
2. COC[C@H](N)CNc1ccc(C(N)=O)c(Nc2cc(C)ns2)c1

*A*
1. 8.00 to 9.00
2. 6.00 to 7.00

###

Biological target: full length active recombinant SYK enzyme (Homo sapiens, UniProt P43405)
Construct: full length active recombinant SYK enzyme (Millipore, Calif.)
Experiment: Inhibition of Syk tyrosine phosphorylation activity (LANCE TR-FRET kinase assay)
pIC50: −log10 of the molar value.
Measured parameter: pIC50

Cc1cccc(Nc2nc(N[C@H](C)C(N)=O)ccc2C(N)=O)c1 [Example 104] : 6.00 to 7.00
CC[C@@H](Nc1nc(Nc2ccc3c(c2)OCO3)c(C(N)=O)cc1F)C(N)=O [Example 237] : 6.00 to 7.00
NC(=O)c1cc(F)c(N[C@@H]2CCCC(F)(F)[C@@H]2N)nc1Nc1cc(F)cc(F)c1 [Example 337] : 6.00 to 7.00
NC(=O)c1cc(F)c(NC2(C(N)=O)CCC2)nc1Nc1cnc2ccccc2c1 [Example 379] : 6.00 to 7.00
CC[C@@H](Nc1ccc(C(N)=O)c(Nc2ccc3scnc3c2)n1)C(N)=O [Example 207] : 7.00 to 8.00
CC[C@@H](Nc1ccc(C(N)=O)c(Nc2ccc3ncccc3c2)n1)C(N)=O [Example 205] : 8.00 to 9.00

Each compound below has a recorded value; state its pIC50.
1. Cc1cncc(Nc2nc(N[C@@H]3CCCC(F)(F)[C@@H]3N)c(F)cc2C(N)=O)c1 [Example 332]
2. CC(C)C[C@H](CN)Nc1nc(Nc2ccc3ncccc3c2)c(C(N)=O)cc1C#N [Example 122]
3. NC(=O)c1ccc(N[C@@H]2CCOC[C@@H]2N)nc1Nc1ccc2ncccc2c1 [Example 276]

*A*
1: 6.00 to 7.00; 2: 8.00 to 9.00; 3: 8.00 to 9.00

// input: 5 compounds below; output: pIC50 for each
1. Cc1cccc(Nc2nc(N[C@@H]3CCCC[C@@H]3N)c(F)cc2C(N)=O)c1C [Example 319]
2. NC(=O)c1ccc(N[C@@H]2CCCC[C@@H]2N)nc1Nc1ccc2ncccc2c1 [Example 134]
3. CC[C@@H](Nc1nc(Nc2ccc3cccnc3c2)c(C(N)=O)cc1F)C(N)=O [Example 97]
4. Cn1cnc2cc(Nc3nc(N[C@@H]4CCCC[C@@H]4N)c(F)cc3C(N)=O)ccc21 [Example 153]
5. NC(=O)c1ccc(N[C@@H]2CCCC[C@@H]2N)nc1Nc1cccc(-n2cccn2)c1 [Example 192]

*A*
7.00 to 8.00
8.00 to 9.00
7.00 to 8.00
8.00 to 9.00
8.00 to 9.00

###

Target: full length active recombinant SYK enzyme (Homo sapiens, UniProt P43405)
Construct: full length active recombinant SYK enzyme (Millipore, Calif.)
Test: Inhibition of Syk tyrosine phosphorylation activity (LANCE TR-FRET kinase assay)
pIC50: −log10 of the molar value.
Measured parameter: pIC50

Past entries and their recorded results:
NC(=O)c1ccc(N[C@@H]2CCCC[C@@H]2N)cc1Nc1cccc(-n2nccn2)c1 : 6.00 to 7.00
NC(=O)c1cc(F)c(N[C@@H]2CCCC(F)(F)[C@@H]2N)nc1Nc1ccc2ncsc2c1 : 7.00 to 8.00
Cc1cc(Nc2nc(N[C@@H](C(N)=O)C3CC3)c(F)cc2C(N)=O)sn1 : 7.00 to 8.00
Cn1cc(Nc2cc(N[C@@H]3CCCC[C@@H]3N)ccc2C(N)=O)cn1 : < 6.00
CC[C@@H](Nc1nc(Nc2ccc3c(ccn3C)c2)c(C(N)=O)cc1F)C(N)=O : 6.00 to 7.00

State recorded pIC50 for all listed molecules.
1. Cn1ncc2c(Nc3nc(N[C@@H]4CCCC[C@@H]4N)c(C#N)cc3C(N)=O)cccc21
2. NC(=O)c1cc(F)c(N[C@@H]2CCCC[C@@H]2N)nc1Nc1cncs1

*A*
1. 8.00 to 9.00
2. < 6.00

*Q* Any idea what pIC50 was measured for CC[C@@H](Nc1nc(Nc2cncc(OC)c2)c(C(N)=O)cc1F)C(N)=O ?
*A* 6.00 to 7.00

Hey, just so you know, these numbers are from patent US8846928B2.
